Measured values drawn from the supplement of paper PMC9170038 for this set.

# Tested on: MS2 coat protein
# PROTOCOL_DESCRIPTION: apparent KD of MS2 coat protein, switch OFF state (with FMN for OFF switches, without FMN for ON switches); designed switch direction (-1 OFF switch, 1 ON switch): 1; higher = weaker reporter binding
# CONDITION_DETAILS: FMN input: 0 or 200 uM; Eterna round: R93 (includes R88 designs)
Reported apparent KD of MS2 coat protein by item:
Reply with just the number (in nM).

| PRIMARY_SEQUENCE | TARGET_ENTITY | UNIT_OF_MEASUREMENT | VALUE |
| --- | --- | --- | --- |
| AAGAAACAUGAGGAUCACCCAUGUAAGAUUAUGGGAGGAUAUGCGAAAAGAAACAAAGAAGCAGAAGGCCUAAGAA [75%, Ex5 sub 1, 4] | MS2 coat protein | nM | 77.3 |
| GAAAAACAUGAGGAUCACCCAUGUGUAAAUAUGGGAGGAUAUACAAAGACGUAAGUCAAAGUAGAAGGCCUAAAAG [Mat - Same State 1 - Eli mod - D12] | MS2 coat protein | nM | 95.1 |
| AGCGAACAUGAGGAUCACCCAUGUGAAAAACAUAGAGGAUAUGUCGCAUGAGUGUAAAAGACAGAAGGCUAUCGCA [Mod of Nando] | MS2 coat protein | nM | 116 |
| AGAAUAAAAAGACAGGAUAUCCAAAAAAAAACAUGAGGAUCACCCAUGUAAAAAAAAUAAAAAUGGGAGAAGGGUCAAAAUAAGA [Mat - Same State 2 - JL mod - D64] | MS2 coat protein | nM | 35.9 |
| GGGAGACAUGAGGAUCACCCAUGUGAGAAGAGGCGAGGAUAUCGAAAGAAAGAAGAGAAACGAGAAGGCGCGAGCC [salish99-SS1-064] | MS2 coat protein | nM | 66.4 |
| AAAUAAAUGACUCAGGAUAUAUCAUAGAAAACAUGAGGAUCACCCAUGUAAUAAUAACAUGUUUGGUAGAAGGGAGUCAAUAAAU [LROPPY Same State 2 - v04_deltaG=1.25] | MS2 coat protein | nM | 18.6 |
| AAAUAAAUAAAAAAGGAUAUAAAAAAGUACACAUGAGGAUCACCCAUGUGUACACAUGGGUGAUCCUAGAAGGAAAAAUAAAAAA [SS2: 91 No MS2] | MS2 coat protein | nM | 73.3 |
| AAAAGACAUGAGGAUCACCCAUGUCCUCGGACAUGAGGAUAUGUACAGACUUCGGUCUGUACAGAAGGCAUAAAAA [SS1 - 1063] | MS2 coat protein | nM | 349 |
| AAAAAACAUGAGGAUCACCCAUGUAAUAAAACGUCAGGAUAUUGAUUUUAUUAUUUAUUACAAGAAGGGACAAAAA [Same State 1 - Omei 1] | MS2 coat protein | nM | 55 |
| AAAUAAAUGACUGAGGAUAUAUCGAUGAGUACAUGAGGAUCACCCAUGUGUUAAUAAAAAGGGUGGUAGAAGGUAGUCAACAAAC [Mod 15 of Pariah 4 by Hyphema in Round 1] | MS2 coat protein | nM | 51.2 |

Record lookup: for MS2 coat protein, what apparent KD of MS2 coat protein belongs to AACAAUCUAUCUGAGGAUAUCAUGACAAAGACAUGAGGAUCACCCAUGUACCAGGAAACUGGUUAUGAGAAGGCAGAUAGAUUGA [SS2: 1117] ?
18.8

Record lookup: for MS2 coat protein, what apparent KD of MS2 coat protein belongs to AAAUAAAUGACUCAGGAUAUAUCAUAGGGUACAUGAGGAUCACCCAUGUUUUAAUAACAUGUUUGGUAGAAGGGAGUCAAUAAAU [LROPPY Same State 2 - v07_deltaG=1.69] ?
133

Record lookup: for MS2 coat protein, what apparent KD of MS2 coat protein belongs to AGAAAUAAAAGAGAGGAUAUUCAAAAAGGGACAUGAGGAUCACCCAUGUAAAAGAAAAUAAAAUGGGAGAAGGCUCUAAAUAAAG [80%, More Helter Skelter 2] ?
127

Record lookup: for MS2 coat protein, what apparent KD of MS2 coat protein belongs to AGGAAACAUGAGGAUCACCCAUGUAUAAAAUAGGGAGGAUAUACUAAGACGAAAGUCAUAGUAGAAGGUCCAAAAA [76%, Meechl, 13] ?
23.4

Record lookup: for MS2 coat protein, what apparent KD of MS2 coat protein belongs to AAAAAAAAAAGACAGGAUAUCCAAAAAAAAACAUGAGGAUCACCCAUGUAAAAAAAAAAAAAGUGGGAGAAGGGUCAAAAAAAAAA [Louisiana 4 - Jieux - Same State 2] ?
38.4
